Values from paper PMC5540273

# System: RSK3(Kin.Dom.1-N-terminal)
# Construct: gene RPS6KA2
# conditions-used: concentration: 1 μM, replicates: in singlicate; n = 1;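 further: KINOMEscan kinase panel screen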
metric-name: %Inh (%)
Answers are plain numbers, in %.

Dear colleague, could you please provide %Inh for the compounds listed below?
1. CN1CCN(CCCNc2nccc(-c3c(-c4ccc(F)cc4)nn4cc(C(F)(F)F)ccc34)n2)CC1 [GW621581]
2. O=c1[nH]cc(-c2ccc(N3CCOCC3)cc2)c2sc(-c3cn[nH]c3)cc12 [GSK2276055]
3. CN(c1ccc(NC(=O)Nc2cc(C(F)(F)F)ccc2F)cc1)c1ccnc(Nc2ccc(S(N)(=O)=O)cc2)n1 [GW809893]
4. C[C@@H](Oc1cc(-n2cnc3cc(-c4ccnc(NCCS(C)(=O)=O)c4)ccc32)sc1C(N)=O)c1ccccc1Cl [GSK907232]

Output line:
1: 10; 2: 14; 3: 35; 4: 66

Dear colleague, could you please provide %Inh for the compounds listed below?
1. O=C(Nc1cccc(Oc2ccc3nc(NC(=O)C4CC4)cn3n2)c1)c1ccccc1C(F)(F)F
2. Oc1cc(Nc2ccnc3cc(I)ccc23)ccc1F [GW552771]
3. O=C(Nc1cccc(-c2nn3ccccc3c2-c2ccnc(Nc3cccc(F)c3)n2)c1)c1c(F)ccc(F)c1Cl [GSK357952]
4. CN(C)Cc1ccc(-c2ccc3c(Nc4ccc(Oc5ccccn5)cc4)ccnc3c2)o1 [GW567148]

Output line:
1. 6
2. 0
3. 24
4. 0

----------
For each entry below, report its %Inh value.
# Tested on: PRKCE
# conditions-used: concentration: 1 μM, replicates: in singlicate; n = 1
Answers are plain numbers, in %.

Input line: Could you share which %Inh value was measured for O=C(Nc1n[nH]c2cc(-c3ccoc3)ccc12)C1CC1 ?
Output line: 12

Input line: Could you share which %Inh value was measured for COC(=O)Nc1nc2ccc(Oc3ccc(NC(=O)Nc4cc(C(F)(F)F)ccc4F)cc3)cc2n1C.Cl ?
Output line: 20

Input line: Could you share which %Inh value was measured for COc1cccc(NC(=O)NC2CCN(c3ccnc(Nc4cc(OC)c(OC)c(OC)c4)n3)C2)c1 (centres unmarked) ?
Output line: 14

Input line: Could you share which %Inh value was measured for Cc1ccc(C)c(NC(=O)NC2CCN(c3ccnc(Nc4ccc(F)cc4)n3)C2)c1 (centres unmarked) ?
Output line: 15

Dear colleague, could you please provide %Inh for the molecules listed below?
1. Cc1ccc(S(=O)(=O)Nc2ccc(Nc3nccc(Nc4cccc5[nH]ncc45)n3)cc2)cc1
2. CN1CCN(Cc2cccc(-c3ccc4c(Nc5ccc(Oc6ccccc6)cc5)ccnc4c3)c2)CC1
3. Cc1occc1-c1ncc(OC[C@@H](N)Cc2c[nH]c3ccccc23)cc1-c1ccc2[nH]nc(C)c2c1.O=C(O)C(F)(F)F
4. Cl.Cl.NCC(NCc1ccc(-c2ccnc3[nH]ccc23)s1)c1ccccc1 (centres unmarked)
5. CCCCc1nn2ncccc2c1-c1ccnc(Nc2ccc(N3CCN(C)CC3)cc2)n1
6. COc1cc2c(cc1OCCN1CCNCC1)ncc1c3ccc(C#N)cc3[nH]c21
7. O=C(Nc1cccc(Oc2ccc3nc(NC(=O)C4CC4)cn3n2)c1)c1ccccc1C(F)(F)F

Output line:
1: 0; 2: 6; 3: 99.8; 4: 84; 5: 14; 6: 19; 7: 6

----------
# Test system: RIOK2
# conditions-used: concentration: 1 μM, replicates: in singlicate; n = 1
Doc: threshold 10% (exclusive). Items with %Inh beneath it return y; others return n.

Input line: Consider the compound COC(=O)Nc1nc2ccc(Oc3ccc(NC(=O)Nc4cc(C(F)(F)F)ccc4F)cc3)cc2n1C.Cl [GW692089] . Is its %Inh strictly less than 10%?
Output line: y

Input line: Consider the compound O=C(Nc1cccc(-c2nn3ncccc3c2-c2ccnc(Nc3ccccc3)n2)c1)c1c(F)cccc1F [GSK198271] . Is its %Inh strictly less than 10%?
Output line: n

Input line: Consider the compound CN(c1ccc(NC(=O)Nc2cc(C(F)(F)F)ccc2F)cc1)c1ccnc(Nc2ccc(S(N)(=O)=O)cc2)n1 [GW809893] . Is its %Inh strictly less than 10%?
Output line: y
